# System: Salmonella typhimurium
# test_description: Antimutagenic activity in Salmonella Typhimurium […] assessed as inhibition of benzo[a]pyrene-induced mutation at 600 ug/plate after 72 hrs in presence of Ames S-9 fraction
# Type: functional, Salmonella enterica subsp. enterica serovar Typhimurium, T98
measured_metric: inhibition (INH) (%)
Number only, in %; omit the unit.

Solved entries (count: 4):
>>> print(df.to_string())
                        smiles_data  value_observed
0  CC(C)=CCOc1c2occc2cc2ccc(=O)oc12              90
1      COc1ccc2ccc(=O)oc2c1CC=C(C)C              54
2         COc1c2occc2cc2ccc(=O)oc12              86
3         COc1c2ccoc2cc2oc(=O)ccc12              75

Dear colleague, please send me the reported inhibition (INH) for `O=c1ccc2ccccc2o1` when you can.
53

----------
# System: Salmonella typhimurium
# test_description: Antimutagenic activity in Salmonella Typhimurium […] assessed as inhibition of 2-nitroflorene-induced mutation at 300 ug/plate after 72 hrs
# Format: functional, Salmonella enterica subsp. enterica serovar Typhimurium, T98
// Not satisfied strictly below 40% in inhibition (INH); Satisfied otherwise

These solved cases illustrate the format of a correct answer.
                                   compound  assigned_category
0    COc1ccc2ccc(=O)oc2c1CC=C(C)C [OSTHOLE]          Satisfied
1  CC(C)=CCOc1c2occc2cc2ccc(=O)oc12 [PENTOSALEN]          Satisfied

Now, please, on to the next compound.
Could you tell me if the measured inhibition (INH) of O=c1ccc2ccccc2o1 [COUMARIN] reaches 40% or more?
Not satisfied

----------
# Test system: Salmonella typhimurium
# test_description: Antimutagenic activity in Salmonella Typhimurium […] assessed as inhibition of acetylaminofluorene-induced mutation at 300 ug/plate after 72 hrs in presence of Ames S-9 fraction
# Assay type: functional, Salmonella enterica subsp. enterica serovar Typhimurium, T98
measured_metric: inhibition (INH)
Give the figure together with its unit, number first.

Solved entries (count: 3):
In [3]: df
Out[3]:
                                   compound   measured_metric  value_observed
0    COc1ccc2ccc(=O)oc2c1CC=C(C)C [OSTHOLE]  inhibition (INH)             56%
1               O=c1ccc2ccccc2o1 [COUMARIN]  inhibition (INH)             28%
2  CC(C)=CCOc1c2occc2cc2ccc(=O)oc12 [PENTOSALEN]  inhibition (INH)             56%

Dear colleague, please send me the reported inhibition (INH) for COc1c2ccoc2cc2oc(=O)ccc12 [BERGAPTEN] when you can.
0%

Dear colleague, please send me the reported inhibition (INH) for COc1c2occc2cc2ccc(=O)oc12 [METHOXSALEN] when you can.
21%
